# credit: patent US20240368122A1

// reported pKd for each item listed
Target: JAK2 JH2 WT (V536-D812) [W659A, W777A, F794H solubilizing mutations] (Homo sapiens, UniProt O60674, F794H/W659A/W777A)
Construct: **JAK2 JH2 WT (V536-D812) [W659A, W777A, F794H solubilizing mutations]; C-thrombin-avi-His6; thrombin cleavage site (C); His6 (C); purchased Biortus
Sequence (O60674 536-812 W659A/W777A/F794H): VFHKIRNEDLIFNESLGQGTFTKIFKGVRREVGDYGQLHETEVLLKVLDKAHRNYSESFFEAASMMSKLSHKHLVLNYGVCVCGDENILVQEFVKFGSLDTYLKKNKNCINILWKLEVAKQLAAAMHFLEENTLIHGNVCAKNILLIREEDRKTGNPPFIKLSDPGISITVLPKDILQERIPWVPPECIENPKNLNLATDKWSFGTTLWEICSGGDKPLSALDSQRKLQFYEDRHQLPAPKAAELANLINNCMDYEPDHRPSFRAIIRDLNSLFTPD
Assay: Surface Plasmon Resonance (SPR) binding assay, JAK2 JH2 domain
pKd: −log10 of the molar value.

Before answering, review these 6 worked examples.
CNC(=O)c1nnc(NC(=O)C2CC2)cc1Nc1cccc(-c2ccc(C(=O)N(C)Cc3cn(C)nc3OC)nc2)c1OC [Compound 257] : 8.00 to 11.00
CNC(=O)c1nnc(NC(=O)C2CC2)cc1Nc1cccc(-c2ccc(C(=O)N(C)Cc3cn(C)nc3C(C)C)nc2)c1OC [Compound 198] : 8.00 to 11.00
CNC(=O)c1nnc(NC(=O)C2CC2)cc1Nc1cccc(-c2cnn(C3CN(Cc4cccc(C5(O)CC5)n4)C3)c2)c1OC [Compound 274] : 8.00 to 11.00
CNC(=O)c1nnc(NC(=O)C2CC2)cc1Nc1cccc(-c2ncn(C3CN(Cc4ccccn4)C3)n2)c1OC [Compound 224] : 8.00 to 11.00
CNC(=O)c1nnc(NC(=O)C2CC2)cc1Nc1cccc(-c2cn(C3CN(C(C)C)C3)nc2CO)c1OC [Compound 335] : 6.30 to 7.30
CNC(=O)c1nnc(NC(=O)C2CC2)cc1Nc1cccc(-c2cn(C3CN(C(C)C)C3)nc2C(C)O)c1OC (stereo not shown) [Compound 336] : 6.30 to 7.30

Continue with the next molecule.
Recorded pKd of CCN(C)C(=O)c1cccc(CN2CC(n3cc(-c4cccc(Nc5cc(NC(=O)C6CC6)nnc5C(=O)NC)c4OC)cn3)C2)n1 [Compound 354] , please. 8.00 to 11.00
